For MOR (Homo sapiens, UniProt P35372), measured IC50 is reported for the entries below.
Reply with the number, then its unit.

Example entries and their recorded answers appear below.
1) O=c1cc(-c2ccc(O)cc2)oc2cc(O)cc(O)c12 [apigenin]
35.8 µM
2) O=c1cc(-c2ccc(O)c(O)c2)oc2cc(O)cc(O)c12 [luteolin]
43.3 µM

Query :: Could you share which IC50 value was measured for COc1ccc(-c2oc3cc(OC)c(OC)c(O)c3c(=O)c2OC)cc1O [casticin] ?
Result :: 2.84 µM

###

- Assayed Target: DOR (Homo sapiens, UniProt P41143)
- Sequence (P41143 whole entry): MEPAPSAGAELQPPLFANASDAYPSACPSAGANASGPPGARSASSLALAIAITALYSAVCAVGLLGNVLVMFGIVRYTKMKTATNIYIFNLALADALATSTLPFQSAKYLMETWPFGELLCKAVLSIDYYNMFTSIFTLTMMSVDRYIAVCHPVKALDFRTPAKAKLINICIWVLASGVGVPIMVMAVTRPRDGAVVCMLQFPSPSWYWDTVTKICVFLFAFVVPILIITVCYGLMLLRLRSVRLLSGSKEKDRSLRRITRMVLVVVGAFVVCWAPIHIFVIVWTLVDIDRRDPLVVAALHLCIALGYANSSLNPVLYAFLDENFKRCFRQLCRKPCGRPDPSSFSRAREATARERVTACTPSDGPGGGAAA
- Assay Name: Receptor binding assay, displacement of [3H]deltorphin
Overview of reported pIC50 across a group of molecules:
pIC50 field: float, defined as -log10 of concentration (mol/L).

Some solved cases for reference:
1) COc1c(-c2ccc(O)cc2)oc2cc(O)cc(O)c2c1=O [isokaempferide]
4.64
2) O=c1cc(-c2ccc(O)c(O)c2)oc2cc(O)cc(O)c12 [luteolin]
4.77

Turning now to a further molecule:
Query :: Using the record for COc1ccc(-c2oc3cc(OC)c(OC)c(O)c3c(=O)c2OC)cc1O [casticin] , report its pIC50.
Result :: 5.69

###

- Assayed Target: UniProt P41143
- Assay Name: [35S]GTPγS binding assay, CHO-DOR membranes
Value Type: EC50 (µM)
Number only, in µM; omit the unit.

Query :: For COc1ccc(-c2oc3cc(OC)c(OC)c(O)c3c(=O)c2OC)cc1O , what is its reported EC50?
Result :: 15.3

###

Ki values recorded for MOR (Homo sapiens, UniProt P35372)
// note: answer is a bare numeric in µM

Please review the following examples before continuing.
1. COc1ccc(-c2oc3cc(OC)c(OC)c(O)c3c(=O)c2OC)cc1O
1.14
2. O=c1cc(-c2ccc(O)cc2)oc2cc(O)cc(O)c12
16.2

Let us examine a further case.
Query :: Please look up its Ki: O=c1cc(-c2ccc(O)c(O)c2)oc2cc(O)cc(O)c12
Result :: 13.4
